- experimental-target: recombinant PKD (Homo sapiens)
- Construct: gene PRKD1; commercial recombinant kinase (Upstate)
- Sequence (Q15139 whole entry): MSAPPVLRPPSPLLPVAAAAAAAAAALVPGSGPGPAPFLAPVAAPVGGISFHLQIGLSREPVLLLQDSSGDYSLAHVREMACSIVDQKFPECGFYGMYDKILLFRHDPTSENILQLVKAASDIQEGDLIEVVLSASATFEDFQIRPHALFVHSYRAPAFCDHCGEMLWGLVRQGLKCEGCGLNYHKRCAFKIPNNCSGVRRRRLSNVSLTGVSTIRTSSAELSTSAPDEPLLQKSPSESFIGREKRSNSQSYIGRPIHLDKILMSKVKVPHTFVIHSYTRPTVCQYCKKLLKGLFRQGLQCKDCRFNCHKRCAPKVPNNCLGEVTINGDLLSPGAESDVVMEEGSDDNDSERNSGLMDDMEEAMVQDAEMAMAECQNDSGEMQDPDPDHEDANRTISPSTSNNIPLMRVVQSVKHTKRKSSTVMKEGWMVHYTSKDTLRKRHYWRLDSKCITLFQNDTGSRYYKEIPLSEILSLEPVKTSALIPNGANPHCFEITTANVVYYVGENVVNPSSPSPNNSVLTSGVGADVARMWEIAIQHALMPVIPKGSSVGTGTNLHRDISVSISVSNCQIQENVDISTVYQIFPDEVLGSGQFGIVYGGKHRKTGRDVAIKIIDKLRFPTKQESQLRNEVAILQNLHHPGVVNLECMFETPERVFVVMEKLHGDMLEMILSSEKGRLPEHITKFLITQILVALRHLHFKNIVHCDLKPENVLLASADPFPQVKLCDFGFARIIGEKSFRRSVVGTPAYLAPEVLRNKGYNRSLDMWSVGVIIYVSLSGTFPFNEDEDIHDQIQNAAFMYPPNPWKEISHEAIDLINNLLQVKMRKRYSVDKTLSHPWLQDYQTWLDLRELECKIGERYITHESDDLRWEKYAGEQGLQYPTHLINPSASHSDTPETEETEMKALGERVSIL
- assay: [γ-32P]ATP phosphorylation of c-Jun, SDS-PAGE autoradiography, densitometry
- Type: biochemical
pIC50: −log10 of the molar value.

molecule-smiles | pIC50
Nc1c2c(nc3cccc(F)c13)OCCC2 | 3.73
O=C1C=CC(=O)c2c1c(O)c1ccccc1c2O | 4.16
COc1ccc2c(=O)c3ccccc3n(C)c2c1 | 4.40
O=C1C(=CO)c2ccccc2-c2ccccc21 | 3.81

====

Recorded pIC50, one value per entry.
- experimental-target: Recombinant CK2 (2α2β) (Homo sapiens, UniProt P68400)
- Construct: gene CSNK2A1; commercial recombinant holoenzyme (Calbiochem), alpha2beta2 tetramer; with Casein kinase II subunit beta
- Sequence (P68400 whole entry): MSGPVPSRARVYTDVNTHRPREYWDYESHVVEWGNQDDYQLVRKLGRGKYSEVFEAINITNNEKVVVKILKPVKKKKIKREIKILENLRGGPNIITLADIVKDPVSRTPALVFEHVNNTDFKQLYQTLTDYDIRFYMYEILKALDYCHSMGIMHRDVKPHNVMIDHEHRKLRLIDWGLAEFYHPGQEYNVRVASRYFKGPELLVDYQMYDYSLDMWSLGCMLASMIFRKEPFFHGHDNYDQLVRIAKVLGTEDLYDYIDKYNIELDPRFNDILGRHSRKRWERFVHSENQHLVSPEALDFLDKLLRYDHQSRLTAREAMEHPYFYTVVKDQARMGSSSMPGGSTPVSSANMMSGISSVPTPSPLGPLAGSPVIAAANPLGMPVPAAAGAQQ
- Sequence (P67870 2-215 partner): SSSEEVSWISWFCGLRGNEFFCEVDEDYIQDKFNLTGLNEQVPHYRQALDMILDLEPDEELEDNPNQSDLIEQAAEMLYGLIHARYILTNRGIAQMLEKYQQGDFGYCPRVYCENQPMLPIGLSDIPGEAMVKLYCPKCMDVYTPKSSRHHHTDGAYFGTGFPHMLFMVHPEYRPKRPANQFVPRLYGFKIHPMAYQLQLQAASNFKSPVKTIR
- assay: [γ-32P]ATP phosphorylation of c-Jun, SDS-PAGE autoradiography, densitometry
- Format: biochemical
pIC50: −log10 of the molar value.

compound | pIC50
O=C1C=CC(=O)c2c1c(O)c1ccccc1c2O [BTB14431] | 5.19
COc1ccc2c(=O)c3ccccc3n(C)c2c1 [JFD02836] | 4.70
O=C1C(=CO)c2ccccc2-c2ccccc21 [JFD03665] | 5.23
Nc1c2c(nc3cccc(F)c13)OCCC2 [SEW04213] | 4.42
